test system: M17-TAU P301L cells; assay: TAU cytotoxicity assay: LDH leakage of retinoic acid incubated M17-TAU P301L cells; format: cell-based, human; conditions: Homo sapiens, 168 h, reduction of LDH activity of retinoic acid incubated M17-TAU P301L cells, 7 days
pEC50: −log10 of the molar value.

{"columns": ["MOLECULE", "SUBJECT OF TEST", "pEC50"],
 "data": [
  ["O=C(NCCc1c[nH]c2ccc(Cl)cc12)c1cc(-c2cccs2)on1 [Example D16]", "M17-TAU P301L cells", 7.68],
  ["Cc1ccc(-c2cc(C(=O)NCCc3c[nH]c4ccc(Cl)cc34)no2)cc1 [Example D57]", "M17-TAU P301L cells", 6.71],
  ["O=C(NCCc1c[nH]c2ccc(Cl)cc12)c1cc(Cc2cccc(F)c2)on1 [Example D23]", "M17-TAU P301L cells", 7.52],
  ["O=C(NCCc1c[nH]c2ccc(Cl)cc12)c1noc(Cc2ccc(Cl)cc2)n1 [Example D172]", "M17-TAU P301L cells", 7.47],
  ["O=C(NCCc1c[nH]c2ccc(Cl)cc12)c1cc(C(O)c2ccccc2)on1 (stereo not shown) [Example D195]", "M17-TAU P301L cells", 7.00],
  ["O=C(NCCc1c[nH]c2ccc(Cl)cc12)c1cc(-c2ccc(Cl)cc2)oc1C(F)(F)F [Example D68]", "M17-TAU P301L cells", 6.47],
  ["O=C(NCCc1c[nH]c2ccc(Cl)cc12)C1CCN(C2CCCCC2)C1=O (stereo not shown) [Example D76]", "M17-TAU P301L cells", 6.24],
  ["O=C(NCCc1c[nH]c2ccc(Cl)cc12)c1nnc(-c2ccccc2)o1 [Example D52]", "M17-TAU P301L cells", 6.80],
  ["O=C(NCCc1c[nH]c2ccc(Cl)cc12)C1=N[C@@H](Cc2ccccc2)CO1 [Example D80]", "M17-TAU P301L cells", 6.04],
  ["CCNCc1cc(C(=O)NCCc2c[nH]c3ccc(Cl)cc23)no1 [Example D66]", "M17-TAU P301L cells", 6.49],
  ["O=C(NCCc1c[nH]c2ccc(Cl)cc12)N1CCN(Cc2ccccc2)C1 [Example D69]", "M17-TAU P301L cells", 6.45],
  ["O=C(NCCc1c[nH]c2cc(F)ccc12)c1cc(Cc2cccc(F)c2)on1 [Example D47]", "M17-TAU P301L cells", 6.88],
  ["Cc1ccccc1N1CCC(C(=O)NCCc2c[nH]c3ccc(Cl)cc23)C1=O (stereo not shown) [Example D158]", "M17-TAU P301L cells", 5.99],
  ["O=C(NCCc1c[nH]c2ccc(Cl)cc12)c1noc(Cc2ccc(OC(F)(F)F)cc2)n1 [Example D185]", "M17-TAU P301L cells", 7.38],
  ["N#Cc1ccc(Cc2cc(C(=O)NCCc3c[nH]c4ccc(Cl)cc34)no2)cc1 [Example D4]", "M17-TAU P301L cells", 8.05],
  ["O=C(NCc1c[nH]c2ccc(Cl)cc12)c1cc(Cc2cccc(F)c2)on1 [Example D34]", "M17-TAU P301L cells", 7.23],
  ["O=C(NCCc1c[nH]c2ccc(Cl)cc12)c1cc(-c2cccc3c2OCCO3)on1 [Example D38]", "M17-TAU P301L cells", 7.10],
  ["O=C(NCCc1c[nH]c2ccc(Cl)cc12)c1cc(Cc2cccs2)on1 [Example D27]", "M17-TAU P301L cells", 7.42],
  ["O=C(NCCc1c[nH]c2ccc(Cl)cc12)c1nnc(Cc2ccccc2)o1 [Example D60]", "M17-TAU P301L cells", 6.67],
  ["O=C(NCCc1c[nH]c2ccc(Cl)cc12)N1CCC(Cc2ccccc2)C1 (stereo not shown) [Example D75]", "M17-TAU P301L cells", 6.27],
  ["N#Cc1cccc(Cc2cc(C(=O)NCCc3c[nH]c4ccc(Cl)cc34)no2)c1 [Example D3]", "M17-TAU P301L cells", 8.22],
  ["O=C(NCCc1c[nH]c2ccc(Cl)cc12)C1CCN(c2cccc(F)c2)C1=O (stereo not shown) [Example D65]", "M17-TAU P301L cells", 6.49]
]}
